Sourced from patent US9732063B2

Target: c-Src (Homo sapiens (Human))
Sequence (P12931 whole entry, looked up): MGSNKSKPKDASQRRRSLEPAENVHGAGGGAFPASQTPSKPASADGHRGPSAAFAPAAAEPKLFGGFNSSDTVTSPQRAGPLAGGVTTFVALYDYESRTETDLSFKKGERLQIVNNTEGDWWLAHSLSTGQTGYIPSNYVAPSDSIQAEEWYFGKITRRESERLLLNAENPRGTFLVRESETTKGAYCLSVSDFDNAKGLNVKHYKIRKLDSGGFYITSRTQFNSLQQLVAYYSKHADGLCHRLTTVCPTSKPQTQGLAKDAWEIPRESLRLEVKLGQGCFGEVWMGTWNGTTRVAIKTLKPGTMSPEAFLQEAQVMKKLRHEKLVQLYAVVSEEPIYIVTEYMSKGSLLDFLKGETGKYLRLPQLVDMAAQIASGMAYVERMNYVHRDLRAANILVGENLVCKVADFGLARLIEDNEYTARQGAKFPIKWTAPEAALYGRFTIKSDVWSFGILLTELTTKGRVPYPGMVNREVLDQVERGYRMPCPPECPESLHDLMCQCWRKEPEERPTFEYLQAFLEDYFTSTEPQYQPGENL
Experiment: c-Src enzyme inhibition (Z-LYTE FRET)
Assay type: biochemical
Mark MET only when IC50 stays strictly below 20 nM. Values equal to the cut-off are NOT MET.

Use these answered entries as a reference point.
Problem: Would you kindly verify if IC50 of "COc1cc(Nc2nccc(Oc3ccc(NC(=O)Nc4cc(C(C)(C)C)nn4-c4ccc(C)cc4)c4ccccc34)n2)cc(OCCOCCOCCO)c1" is strictly less than 20 nM?
Solution: MET

Problem: Would you kindly verify if IC50 of "COCCOCCOc1cc(Nc2nccc(Oc3ccc(NC(=O)Nc4cc(C(C)(C)C)nn4-c4ccc(C)cc4)c4ccccc34)n2)cc(OC)c1" is strictly less than 20 nM?
Solution: MET

Problem: Would you kindly verify if IC50 of "COc1cc(Nc2nccc(Oc3ccc(NC(=O)Nc4cc(C(C)(C)C)nn4-c4ccc(C)cc4)c(Cl)c3Cl)n2)cc(OCCOCCOCCO)c1" is strictly less than 20 nM?
Solution: MET

Problem: Would you kindly verify if IC50 of "COCCOCCOCCOc1cc(Nc2nccc(Oc3ccc(NC(=O)Nc4cc(C(C)(C)C)nn4-c4ccc(C)cc4)c(Cl)c3Cl)n2)cc(OC)c1" is strictly less than 20 nM?
Solution: NOT MET

Problem: Would you kindly verify if IC50 of "C#Cc1cc(Nc2nccc(Oc3ccc(NC(=O)Nc4cc(C(C)C)nn4-c4ccc(C)cc4)c4ccccc34)n2)cc(OC)c1" is strictly less than 20 nM?
Solution: NOT MET

Problem: Would you kindly verify if IC50 of "COCCOCCOCCOc1cc(Nc2nccc(Oc3ccc(NC(=O)Nc4cc(C(C)(C)C)nn4-c4ccc(OC)nc4)c4ccccc34)n2)cc(OC)c1" is strictly less than 20 nM?
Solution: MET

Problem: Would you kindly verify if IC50 of "COc1cc(Nc2nccc(Oc3ccc(NC(=O)Nc4cc(C(C)C)nn4-c4ccc(C)cc4)c(Cl)c3Cl)n2)cc(OCCN2CCOCC2)c1" is strictly less than 20 nM?
Solution: NOT MET

Next up:
Problem: Would you kindly verify if IC50 of "COCCOCCOCCOc1cc(Nc2nccc(Oc3ccc(NC(=O)Nc4cc(C(C)C)nn4-c4ccc(C)cc4)c4ccccc34)n2)cc(OC)c1" is strictly less than 20 nM?
Solution: MET
